Test system: CCRF-CEM/VLB-100 cells
assay.method.text: Intracellular accumulation of [3H]vinblastine in CCRF-CEM/VLB-100 cells
Format: cell-based, human
stated.conditions: 30 μM, washed
Label condition met when [3H]vinblastine accumulation is strictly below 7 fmole/10^3 cells; at or above that, label condition not met.

Worked examples follow.
INSERT INTO results (compound, group) VALUES
  ('C=CC(C)(C)C12CC3c4nc5ccccc5c(=O)n4CC(=O)N3C1N(C(C)=O)c1ccccc12 (centres unmarked) [5-N-Ac-8-desmethyl-Ardeemin, N-Acetyl-8-desmethyl-ardeemin]', 'condition not met'),
  ('C=CC(C)(C)C12CC3c4nc5ccccc5c(=O)n4C(C)C(=O)N3C1N(C(=O)C(F)(F)F)c1ccccc12 (centres unmarked) [5N F3 -Ac-Ard 3F, 5N-Tri-F Acetyl Ardeemin]', 'condition not met'),
  ('C=CC(C)(C)C12CC3C(=O)N(C(C)=O)C(C)C(=O)N3C1N(C(C)=O)c1ccccc12 (centres unmarked) [Imide Di-Ac-DKP Amide 14(D), imide diacetate diketopiperazine]', 'condition met'),
  ('C=CC(C)(C)C12CC3C(=O)N(C(C)=O)C(C)C(=O)N3C1Nc1ccccc12 (centres unmarked) [Imide-Ac-DKP 14(A), imide acetate diketopiperazine]', 'condition met');

Pending compound:
**Query** Given the entry C=CC(C)(C)C12CC3C(=O)NC(C)C(=O)N3C1Nc1ccccc12 (centres unmarked) [Diketopiperazine 14(B), Diketopiperazine] , would its reported [3H]vinblastine accumulation be below 7 fmole/10^3 cells?
**Result** condition met
